molecular target: tubulin heterodimer (porcine/bovine brain tubulin) ( (porcine or bovine brain), UniProt Q6B856 1-445); assay: ITC
Sequence (chain, as listed by the source, chain 1 of 2): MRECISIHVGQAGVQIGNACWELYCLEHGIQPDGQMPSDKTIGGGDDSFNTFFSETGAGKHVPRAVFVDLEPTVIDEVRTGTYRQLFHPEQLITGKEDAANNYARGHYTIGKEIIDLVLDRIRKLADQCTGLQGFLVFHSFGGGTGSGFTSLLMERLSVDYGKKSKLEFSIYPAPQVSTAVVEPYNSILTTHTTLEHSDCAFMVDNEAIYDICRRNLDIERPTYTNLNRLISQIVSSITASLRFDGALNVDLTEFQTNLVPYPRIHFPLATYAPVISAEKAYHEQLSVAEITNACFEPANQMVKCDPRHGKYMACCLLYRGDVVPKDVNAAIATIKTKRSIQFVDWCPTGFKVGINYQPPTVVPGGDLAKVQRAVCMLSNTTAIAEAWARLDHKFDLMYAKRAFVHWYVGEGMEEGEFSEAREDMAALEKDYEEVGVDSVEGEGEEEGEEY
Sequence (Q6B856 whole entry, chain 2 of 2): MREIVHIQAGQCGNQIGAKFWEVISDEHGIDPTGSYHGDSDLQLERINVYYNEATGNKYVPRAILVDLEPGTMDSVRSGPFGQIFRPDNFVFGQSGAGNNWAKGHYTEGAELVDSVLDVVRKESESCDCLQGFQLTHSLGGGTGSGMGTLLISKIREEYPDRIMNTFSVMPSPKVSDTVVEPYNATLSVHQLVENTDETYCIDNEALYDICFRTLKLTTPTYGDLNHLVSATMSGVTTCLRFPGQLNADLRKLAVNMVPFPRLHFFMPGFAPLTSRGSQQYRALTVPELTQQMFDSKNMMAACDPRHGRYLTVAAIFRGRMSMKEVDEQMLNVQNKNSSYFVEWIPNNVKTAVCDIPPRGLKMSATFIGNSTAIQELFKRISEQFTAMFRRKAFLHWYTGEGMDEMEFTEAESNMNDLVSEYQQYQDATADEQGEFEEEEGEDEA
property: Kd (nM)

K372E (protein) VANIEERPIKAAIGERKQTFEDYLEEQIQLEEQELKQKQLKEAEGPLPIKAKPEQPFLKRGEGLARFTNAKSKFQK :: 400

A = ED339RR (protein) VANIEERPIKAAIGERKQTFRRYLEEQIQLEEQELKQKQLKEAEGPLPIKAKPKQPFLKRGEGLARFTNAKSKFQK
B = F385A (protein) VANIEERPIKAAIGERKQTFEDYLEEQIQLEEQELKQKQLKEAEGPLPIKAKPKQPFLKRGEGLARATNAKSKFQK
C = R384E (protein) VANIEERPIKAAIGERKQTFEDYLEEQIQLEEQELKQKQLKEAEGPLPIKAKPKQPFLKRGEGLAEFTNAKSKFQK
**Query** Sort entries by Kd from minimum to maximum value. Order the labels as requested and give them as your answer.
**Result** B, A, C
(B: 100 nM, A: 143 nM, C: 1900 nM)
